assay: Pharmacokinetic studies in Sprague Dawley rats (oral gavage and IV); format: in vivo; conditions: rat, IV (1 mg/kg), male SD rats, plasma
measured_metric: half-life (h)
Record the value in h, omitting the unit from your answer.

smiles_text: CC1(C)C(=O)C(C#N)=C[C@]2(C)C3=CC(=O)[C@@H]4[C@@H]5C[C@@](C)(N6CC(O)C6)CC[C@]5(C)CC[C@@]4(C)[C@]3(C)CC[C@@H]12
value_unit: h
half-life: 4.7

smiles_text: CC1(C)C(=O)C(C#N)=C[C@]2(C)C3=CC(=O)[C@@H]4[C@@H]5C[C@@](C)(N6C(=O)CCC6=O)CC[C@]5(C)CC[C@@]4(C)[C@]3(C)CC[C@@H]12
value_unit: h
half-life: 1.4

smiles_text: CC(=NC#N)NC[C@]12CCC(C)(C)C[C@H]1[C@H]1C(=O)C=C3[C@@]4(C)C=C(C#N)C(=O)C(C)(C)[C@@H]4CC[C@@]3(C)[C@]1(C)CC2
value_unit: h
half-life: 3.2

smiles_text: CC1(C)C(=O)C(C#N)=C[C@]2(C)C3=CC(=O)[C@@H]4[C@@H]5C[C@@](C)(c6nnc(C(N)=O)o6)CC[C@]5(C)CC[C@@]4(C)[C@]3(C)CC[C@@H]12
value_unit: h
half-life: 1.4

smiles_text: Cc1nnc([C@@]2(C)CC[C@]3(C)CC[C@]4(C)[C@H](C(=O)C=C5[C@@]6(C)C=C(C#N)C(=O)C(C)(C)[C@@H]6CC[C@]54C)[C@@H]3C2)o1
value_unit: h
half-life: 1.7

smiles_text: CC1(C)C(=O)C(C#N)=C[C@]2(C)C3=CC(=O)[C@@H]4[C@@H]5C[C@@](C)(N6CCCC6=O)CC[C@]5(C)CC[C@@]4(C)[C@]3(C)CC[C@@H]12
value_unit: h
half-life: 1.7

Query :: What does the record list as half-life for CC1(C)C(=O)C(C#N)=C[C@]2(C)C3=CC(=O)[C@@H]4[C@@H]5C[C@@](C)(c6nnco6)CC[C@]5(C)CC[C@@]4(C)[C@]3(C)CC[C@@H]12 ?
Result :: 1.5

====

assay: Pharmacokinetic studies in Sprague Dawley rats (oral gavage and IV); format: in vivo; settings: rat, plasma, oral 5 mg/kg vs IV 1 mg/kg, male SD rats, read-out: Bioavailibility F %
Quick list: bioavailability per entry.
Hi! Could you send only the number? It should be in %, unit omitted.

Solved cases below.
compound: COC(=O)[C@]12CCC(C)(C)C[C@H]1[C@H]1C(=O)C=C3[C@@]4(C)C=C(C#N)C(=O)C(C)(C)[C@@H]4CC[C@@]3(C)[C@]1(C)CC2 [Control, reference compound]
bioavailability (%): 1.8

compound: CC1(C)C(=O)C(C#N)=C[C@]2(C)C3=CC(=O)[C@@H]4[C@@H]5C[C@@](C)(c6nnc(C(N)=O)o6)CC[C@]5(C)CC[C@@]4(C)[C@]3(C)CC[C@@H]12
bioavailability (%): 7.8

compound: Cc1nnc([C@@]2(C)CC[C@]3(C)CC[C@]4(C)[C@H](C(=O)C=C5[C@@]6(C)C=C(C#N)C(=O)C(C)(C)[C@@H]6CC[C@]54C)[C@@H]3C2)o1
bioavailability (%): 83.8

compound: CC1(C)C(=O)C(C#N)=C[C@]2(C)C3=CC(=O)[C@@H]4[C@@H]5C[C@@](C)(N6C(=O)CCC6=O)CC[C@]5(C)CC[C@@]4(C)[C@]3(C)CC[C@@H]12
bioavailability (%): 13.6

compound: CC1(C)C(=O)C(C#N)=C[C@]2(C)C3=CC(=O)[C@@H]4[C@@H]5C[C@@](C)(N6CCOC6=O)CC[C@]5(C)CC[C@@]4(C)[C@]3(C)CC[C@@H]12
bioavailability (%): 19.2

compound: CC1(C)C(=O)C(C#N)=C[C@]2(C)C3=CC(=O)[C@@H]4[C@@H]5C[C@@](C)(N6CC(O)C6)CC[C@]5(C)CC[C@@]4(C)[C@]3(C)CC[C@@H]12
bioavailability (%): 18.3

compound: CC1(C)C(=O)C(C#N)=C[C@]2(C)C3=CC(=O)[C@@H]4[C@@H]5C[C@@](C)(c6nnc(C(=O)NC7CC7)o6)CC[C@]5(C)CC[C@@]4(C)[C@]3(C)CC[C@@H]12
bioavailability (%): 14.7

compound: Cc1noc([C@@]2(C)CC[C@]3(C)CC[C@]4(C)[C@H](C(=O)C=C5[C@@]6(C)C=C(C#N)C(=O)C(C)(C)[C@@H]6CC[C@]54C)[C@@H]3C2)n1
bioavailability (%): 25

Query :: Can you share its bioavailability? I mean this compound: CC1(C)C(=O)C(C#N)=C[C@]2(C)C3=CC(=O)[C@@H]4[C@@H]5C[C@@](C)(N6CCCC6=O)CC[C@]5(C)CC[C@@]4(C)[C@]3(C)CC[C@@H]12
Result :: 9.9

Query :: Query (compound): CC1(C)C(=O)C(C#N)=C[C@]2(C)C3=CC(=O)[C@@H]4[C@@H]5C[C@@](C)(C#N)CC[C@]5(C)CC[C@@]4(C)[C@]3(C)CC[C@@H]12 ; field requested: bioavailability
Result :: 33.2

Query :: So what does the record say about bioavailability for CC1(C)C(=O)C(C#N)=C[C@]2(C)C3=CC(=O)[C@@H]4[C@@H]5C[C@@](C)(c6nnco6)CC[C@]5(C)CC[C@@]4(C)[C@]3(C)CC[C@@H]12 ?
Result :: 22.1

Query :: // query bioavailability value for entry CC(=NC#N)NC[C@]12CCC(C)(C)C[C@H]1[C@H]1C(=O)C=C3[C@@]4(C)C=C(C#N)C(=O)C(C)(C)[C@@H]4CC[C@@]3(C)[C@]1(C)CC2
Result :: 14.6

====

assay: Metabolic stability in dog liver microsomes; format: in vitro ADME; settings: Beagle
# CLint scaled at 1 μM values compiled below
Provide only the numeric value, understood in mL/min/kg.

compound: CC(=NC#N)NC[C@]12CCC(C)(C)C[C@H]1[C@H]1C(=O)C=C3[C@@]4(C)C=C(C#N)C(=O)C(C)(C)[C@@H]4CC[C@@]3(C)[C@]1(C)CC2 [Example 4]
measured_metric: CLint scaled at 1 μM
assay_value: 101

compound: COC(=O)[C@]12CCC(C)(C)C[C@H]1[C@H]1C(=O)C=C3[C@@]4(C)C=C(C#N)C(=O)C(C)(C)[C@@H]4CC[C@@]3(C)[C@]1(C)CC2 [Control, reference compound]
measured_metric: CLint scaled at 1 μM
assay_value: 78

compound: CC1(C)C(=O)C(C#N)=C[C@]2(C)C3=CC(=O)[C@@H]4[C@@H]5C[C@@](C)(N6CC(O)C6)CC[C@]5(C)CC[C@@]4(C)[C@]3(C)CC[C@@H]12 [Example 26]
measured_metric: CLint scaled at 1 μM
assay_value: 77.3

compound: CC1(C)C(=O)C(C#N)=C[C@]2(C)C3=CC(=O)[C@@H]4[C@@H]5C[C@@](C)(C#N)CC[C@]5(C)CC[C@@]4(C)[C@]3(C)CC[C@@H]12 [Example 2]
measured_metric: CLint scaled at 1 μM
assay_value: 313

Let us move to another entry and its CLint scaled at 1 μM.
Query :: Fill in: CLint scaled at 1 μM of CNC(=NC#N)NC[C@]12CCC(C)(C)C[C@H]1[C@H]1C(=O)C=C3[C@@]4(C)C=C(C#N)C(=O)C(C)(C)[C@@H]4CC[C@@]3(C)[C@]1(C)CC2 [Example 3] is ___
Result :: 81.6

====

target: CYP2D6 (Homo sapiens, UniProt P10635); construct: studied in liver microsomes of CD-1 mouse, Sprague Dawley rat, Beagle dog, cynomolgus monkey, and human; from tissue; host or cells: liver microsomes; test: CYP450 enzyme inhibition in liver microsomes (cocktail probe incubation); format: in vitro ADME; conditions: species not given, 0.05-50 μM tested
Sequence (P10635 whole entry): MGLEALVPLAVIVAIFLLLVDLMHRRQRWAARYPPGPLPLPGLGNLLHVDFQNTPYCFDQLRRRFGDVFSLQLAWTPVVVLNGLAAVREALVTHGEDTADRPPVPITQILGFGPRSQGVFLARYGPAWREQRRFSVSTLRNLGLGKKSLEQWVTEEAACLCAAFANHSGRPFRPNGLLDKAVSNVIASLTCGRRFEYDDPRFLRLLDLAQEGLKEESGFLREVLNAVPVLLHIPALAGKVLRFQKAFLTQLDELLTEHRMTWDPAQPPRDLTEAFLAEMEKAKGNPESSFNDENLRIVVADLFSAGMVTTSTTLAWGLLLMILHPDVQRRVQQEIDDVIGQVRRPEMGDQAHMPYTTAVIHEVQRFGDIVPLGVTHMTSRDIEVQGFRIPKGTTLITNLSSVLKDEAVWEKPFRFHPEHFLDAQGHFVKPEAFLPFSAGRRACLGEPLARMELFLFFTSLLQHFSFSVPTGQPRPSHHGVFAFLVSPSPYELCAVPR
pIC50 listing for selected compounds.
Field pIC50 (float): negative decimal logarithm of the concentration in molar.

Example entries and their recorded answers appear below.
compound: CNC(=NC#N)NC[C@]12CCC(C)(C)C[C@H]1[C@H]1C(=O)C=C3[C@@]4(C)C=C(C#N)C(=O)C(C)(C)[C@@H]4CC[C@@]3(C)[C@]1(C)CC2 [Example 3]
pIC50: 5.33

compound: CC1(C)C(=O)C(C#N)=C[C@]2(C)C3=CC(=O)[C@@H]4[C@@H]5C[C@@](C)(c6nnc(C(=O)NC7CC7)o6)CC[C@]5(C)CC[C@@]4(C)[C@]3(C)CC[C@@H]12 [Example 19]
pIC50: 5.08

Query :: Entry CC1(C)C(=O)C(C#N)=C[C@]2(C)C3=CC(=O)[C@@H]4[C@@H]5C[C@@](C)(c6nnco6)CC[C@]5(C)CC[C@@]4(C)[C@]3(C)CC[C@@H]12 [Example 9] : reported pIC50 = ?
Result :: 4.54

Query :: Return reported pIC50; argument: CC(=NC#N)NC[C@]12CCC(C)(C)C[C@H]1[C@H]1C(=O)C=C3[C@@]4(C)C=C(C#N)C(=O)C(C)(C)[C@@H]4CC[C@@]3(C)[C@]1(C)CC2 [Example 4]
Result :: 5.66

Query :: pIC50 lookup needed for CC1(C)C(=O)C(C#N)=C[C@]2(C)C3=CC(=O)[C@@H]4[C@@H]5C[C@@](C)(Cc6nnco6)CC[C@]5(C)CC[C@@]4(C)[C@]3(C)CC[C@@H]12 [Example 14] , thanks.
Result :: 4.99

Query :: Fill blank: measured pIC50 of the compound Cc1nnc([C@@]2(C)CC[C@]3(C)CC[C@]4(C)[C@H](C(=O)C=C5[C@@]6(C)C=C(C#N)C(=O)C(C)(C)[C@@H]6CC[C@]54C)[C@@H]3C2)o1 [Example 1] is ____.
Result :: 4.82

Data origin: patent US20220017566A1
